# Tested on: OVCAR-4
# assay_procedure: NCI tumour cell line growth inhibition, 48 h
The source made the active and inactive calls. Cut-off read from the data, not from the text of the source: active = GI50 up to about 1.1 µM and inactive = higher.
Please respond with reported GI50 for every item in the list.

Some entries whose results are on file:
>  <molecule>
COc1ccc(OC)c2c1C=C[C@H](C1(C)SCCS1)C2C(C)=O (some centres undefined)

>  <system_name>
OVCAR-4

>  <observed_result>
42.5 µM (inactive)

$$$$
>  <molecule>
N=C(N)NC(=N)Nc1ccc(S(N)(=O)=O)cc1

>  <system_name>
OVCAR-4

>  <observed_result>
> 100 µM (inactive)

$$$$
>  <molecule>
O=C(O)CN1CCNCCN(CC(=O)O)CCNCC1

>  <system_name>
OVCAR-4

>  <observed_result>
> 100 µM (inactive)

$$$$
>  <molecule>
CN(CCNC(=O)c1nn(-c2ccc(Cl)cc2Cl)c2c1Cc1ccccc1-2)CCNC(=O)c1nn(-c2ccc(Cl)cc2Cl)c2c1Cc1ccccc1-2

>  <system_name>
OVCAR-4

>  <observed_result>
2.1 µM (inactive)

$$$$
>  <molecule>
S=C(S)NCCN1CCNCC1

>  <system_name>
OVCAR-4

>  <observed_result>
> 100 µM (inactive)

$$$$
>  <molecule>
COc1cc2cc(c1Cl)N(C)C(=O)C[C@H](OC(=O)[C@H](C)N(C)C(C)=O)[C@]1(C)O[C@H]1[C@H](C)[C@@H]1C[C@@](O)(NC(=O)O1)[C@H](OC)/C=C/C=C(/C)C2

>  <system_name>
OVCAR-4

>  <observed_result>
0.794 µM (active)

$$$$
>  <molecule>
O=C1C(Br)=C(Br)C(=O)c2c(O)ccc(O)c21

>  <system_name>
OVCAR-4

>  <observed_result>
3.6 µM (inactive)

$$$$
>  <molecule>
COc1ccc(NC(S)=Nc2ccccc2)cc1

>  <system_name>
OVCAR-4

>  <observed_result>
> 100 µM (inactive)

$$$$

Okay, now this molecule:
*Q* # GI50 lookup, item CCCCN(CC)c1nc(C)nc2c1c(C)c(C)n2-c1c(C)cc(C)cc1C
*A* 16.3 µM (inactive)

----------
# Tested on: RXF 631
# assay_procedure: NCI tumour cell line growth inhibition, 48 h
Calls of active or inactive are those of the source. Cut-off read from the data, not from the text of the source: active = GI50 up to about 1.1 µM and inactive = higher.
Just give me one of these, please: active, inactive

Past entries and their recorded results:
>  <compound>
CC1(C)CCc2cc3c(cc2O1)OCC1c2cc4c(cc2OC31)OCO4 (stereo unspecified)

>  <qualitative_label>
inactive

$$$$
>  <compound>
CCOC(=O)Cc1csc(Nc2ccc(OCC)cc2)n1

>  <qualitative_label>
inactive

$$$$
>  <compound>
O=C(NCCS(=O)(=O)N1C(=O)C2CCCN2C(=O)[C@@H]1Cc1ccccc1)OCc1ccccc1 (stereo partly specified)

>  <qualitative_label>
inactive

$$$$
>  <compound>
COC(=O)NC1C(C)OC(OC2C/C=C(/C)C3C=CC4C(OC5CC(OC6CCC(OC7CC(O)C(OC8CCC(O)C(C)O8)C(C)O7)C(C)O6)C(OC(C)=O)C(C)O5)C(C)CC(C)C4C3(C)/C(O)=C3/C(=O)OC4(CC(C=O)=CC(O)C4/C=C\2C)C3=O)CC1(C)[N+](=O)[O-] (stereo unspecified)

>  <qualitative_label>
active

$$$$
>  <compound>
COc1ccc2c(c1)CC1c3c(cc4c(c3-2)OCO4)CCN1C (stereo unspecified)

>  <qualitative_label>
inactive

$$$$

*Q* What call does the record list for O=C(/C(=C/c1ccc(O)cc1)c1ccccc1)c1ccccc1 ?
*A* inactive

*Q* Record request — test call for CC(C)(C)C1(O)Cc2ccccc2C(=O)O1 (stereo unspecified)
*A* inactive

*Q* # outcome recorded in this test, key = C(/C=C/N1CCCC1)=C\c1nc(N2CCCC2)c2ccccc2n1
*A* inactive

*Q* In this assay, the call recorded for BrCC[N+]12CCCN1CCC2 was what?
*A* inactive

*Q* For this compound, state the assay outcome: CC1=C(C(=O)Nc2ccccc2)C(c2ccc3c(c2)OCO3)C(C(=O)Nc2ccccc2)=C(C)N1
*A* inactive

*Q* Recorded call for CCCCC/C=C1\CCC(CN(C)C)C1=O (stereo unspecified) ?
*A* inactive

*Q* Hi, sorry to bother you, what did the test record for CC1=C(C(=O)Nc2cccc(Cl)c2)C(c2ccc([N+](=O)[O-])cc2)C(C(=O)Nc2cccc(Cl)c2)=C(C)N1 ?
*A* inactive

*Q* Which outcome was assigned to CNS(=O)(=O)NNS(=O)(=O)c1ccc(Cl)cc1 in this test?
*A* inactive
